experiment: in vivo; details: female, BALB/c, mouse, iv, 20 pmol peptide, total radioactivity, uptake in liver
endpoint: tissue uptake at 1 h

Problem: So what does the record say about tissue uptake at 1 h for CCCC[C@@H](C(=O)N[C@@H](CC(=O)O)C(=O)N[C@@H](Cc1cccc2ccccc12)C(N)=O)N(C)C(=O)[C@H](Cc1c[nH]c2ccccc12)NC(=O)CNC(=O)[C@H](Cc1ccc(O)cc1)NC(=O)[C@H](C)NC(=O)[C@@H](CCC(=O)O)NC(=O)CN1CCN(CC(=O)O)CCN(CC(=O)O)CCN(CC(=O)O)CC1 [^68Ga-DOTA-MGS5, metal not drawn] ?
Solution: 1.21 %ID/g

Data origin, for the record: paper PMC8235783
